I'd be grateful if you could share measured AC1.4 for these entries.
Tested on: Bovine cardiac myofibrils
procedureSummary: In vitro model of dose-dependent myofibril ATPase modulation (AC1.4, pyruvate kinase/lactate dehydrogenase-coupled ATPase assay at pCa25)
Type: biochemical
assayContext: concentration at which ATPase activity was 1.4-fold higher than the bottom of the dose curve, mean of a minimum of two independent tests
One number for each entry, in µM.

Look over these answered cases.
Please report AC1.4 for the following compound: COc1cc(F)c([C@H](NC(=O)[C@H]2C[C@H]3C[C@H]3N2C(=O)c2cccc(S(C)(=O)=O)c2)C2CC2)cc1F
7.287

Please report AC1.4 for the following compound: NS(=O)(=O)c1cccc(C(=O)N2C[C@@H](F)C[C@@H]2C(=O)N[C@@H](c2cc(F)c(Cl)cc2F)C2CC2)c1
0.713

Please report AC1.4 for the following compound: CCS(=O)(=O)c1cncc(C(=O)N2[C@@H](C(=O)N[C@@H](c3cc(F)c(Cl)cc3F)C3CC3)C[C@H]3C[C@H]32)c1
0.274

Please report AC1.4 for the following compound: O=C(NCc1ccc(C(F)(F)F)cc1)[C@H]1CCCN1C(=O)[C@H]1CCCN(S(=O)(=O)N2CC(n3cccn3)C2)C1
3.371

Please report AC1.4 for the following compound: CS(=O)(=O)c1cc(C(=O)N2CCC[C@@H]2C(=O)N[C@@H](c2ccc(C(F)(F)F)cc2F)C2CC2)ccc1F
5.354

Please report AC1.4 for the following compound: C[C@H](C(=O)NCc1ccc(Cl)c(Cl)c1)N(C)C(=O)c1cccc(S(=O)(=O)N2CC(C#N)C2)c1
0.9606

Go through the list and state AC1.4 for each entry.
1. N#CC1CC(S(=O)(=O)c2cccc(C(=O)N3CCC[C@@H]3C(=O)NCc3ccc(C(F)(F)F)nc3)c2)C1 (stereo partly shown)
2. CS(=O)(=O)c1cncc(C(=O)N2CCC[C@@H]2C(=O)N[C@@H](c2ccc(C(F)(F)F)cc2F)C2CC2)c1
3. C[C@@H](NC(=O)[C@H]1CCCN1C(=O)[C@H]1CCCN(S(=O)(=O)N2CC(S(C)(=O)=O)C2)C1)c1ccc(Cl)cc1
4. N#CC1CN(S(=O)(=O)c2cccc(C(=O)N3CCC[C@@H]3C(=O)NC3CC(C(F)(F)F)C3)c2)C1 (stereo partly shown)
5. COc1cc(Cl)ccc1CNC(=O)[C@H]1CCCN1C(=O)[C@H]1CCCN(S(=O)(=O)N2CC(C#N)C2)C1
6. CN(C)c1cccc(C(=O)N2CCC[C@@H]2C(=O)N[C@@H](c2ccc(C(F)(F)F)cc2F)C2CC2)c1
7. O=C(NCc1ccc(C(F)(F)F)cc1)[C@H]1CCCN1C(=O)[C@H]1CCCN(S(=O)(=O)C2COC2)C1
8. COc1ccc(C(C)NC(=O)[C@H]2CCCN2C(=O)[C@H]2CCCN(S(=O)(=O)N3CC(C#N)C3)C2)cc1F (stereo partly shown)

1: 2.38; 2: 4.4365; 3: 0.2589; 4: 7.6347; 5: 0.3085; 6: 3.397; 7: 4.669; 8: 3.413

* * *

System: Bovine cardiac myofibrils
procedureSummary: In vitro model of dose-dependent myofibril ATPase modulation (AC1.4, pyruvate kinase/lactate dehydrogenase-coupled ATPase assay at pCa25)
Format: biochemical
assayContext: concentration at which ATPase activity was 1.4-fold higher than the bottom of the dose curve, mean of a minimum of two independent tests
Classes based on AC1.4: low bin: < 0.7 µM; mid bin: ≥ 0.7 µM and < 2 µM; high bin: ≥ 2 µM

Worked examples follow.
Tag the class for O=C(O)CS(=O)(=O)c1cccc(C(=O)N2[C@@H](C(=O)N[C@@H](c3cc(F)c(C(F)(F)F)cc3F)C3CC3)C[C@H]3C[C@H]32)c1
mid bin

Tag the class for CCS(=O)(=O)c1ccnc(C(=O)N2[C@@H](C(=O)N[C@@H](c3cc(F)c(Cl)cc3F)C3CC3)C[C@H]3C[C@H]32)c1
low bin

Tag the class for CS(=O)(=O)c1cccc(C(=O)N2[C@@H](C(=O)N[C@@H](c3cc(F)c(C#N)cc3F)C3CC3)C[C@H]3C[C@H]32)c1
high bin

New cases:
Tag the class for Cc1ccc([C@@H](C)NC(=O)[C@H]2CCCN2C(=O)[C@H]2CCCN(S(=O)(=O)N3CC(C#N)C3)C2)cc1
mid bin

Tag the class for CS(=O)(=O)c1cccc(C(=O)N2C[C@@H](F)C[C@@H]2C(=O)N[C@@H](c2ccc(C(F)(F)F)cc2F)C2CC2)c1
mid bin

Tag the class for CC[C@@H](NC(=O)[C@H]1CCCN1C(=O)[C@H]1CCCN(S(=O)(=O)N2CC(C#N)C2)C1)c1ccc(C(F)(F)F)cc1F
low bin

Tag the class for N#CC1(c2cccc(C(=O)N3[C@@H](C(=O)N[C@@H](c4ccc(C(F)(F)F)cc4F)C4COC4)C[C@H]4C[C@H]43)c2)CC1
mid bin

Tag the class for CS(=O)(=O)c1ccc(NC2CC2)c(C(=O)N2CCC[C@@H]2C(=O)N[C@@H](c2ccc(C(F)(F)F)cc2F)C2CC2)c1
low bin

Tag the class for O=C(NCc1ccc(C(F)(F)F)cc1)[C@H]1CCCN1C(=O)[C@H]1CCCN(S(=O)(=O)NC2CS(=O)(=O)C2)C1
high bin

Tag the class for N#CC1CN(S(=O)(=O)N2CCC[C@H](C(=O)N3CCC[C@@H]3C(=O)NCc3cccc(Cl)c3)C2)C1
mid bin

Tag the class for N#CC1CN(S(=O)(=O)c2cccc(C(=O)N3C[C@@H](O)C[C@@H]3C(=O)NCc3ccc(C(F)(F)F)cc3)c2)C1
low bin

Tag the class for N#CC1CN(S(=O)(=O)N2CCC[C@H](C(=O)N3CCC[C@@H]3C(=O)N[C@@H](CO)c3ccc(C(F)(F)F)cc3)C2)C1
high bin

Tag the class for CS(=O)(=O)c1cccc(C(=O)N2CCC[C@@H]2C(=O)N[C@@H](c2ccc(C(F)F)cc2F)C2CC2)c1
high bin

Tag the class for CS(=O)(=O)c1ccnc(C(=O)N2CCC[C@@H]2C(=O)N[C@@H](c2ccc(C(F)(F)F)cc2F)C2CC2)c1
high bin

* * *

System: Bovine cardiac myofibrils
procedureSummary: In vitro model of dose-dependent myofibril ATPase modulation (AC1.4, pyruvate kinase/lactate dehydrogenase-coupled ATPase assay at pCa25)
Format: biochemical
assayContext: concentration at which ATPase activity was 1.4-fold higher than the bottom of the dose curve, mean of a minimum of two independent tests
I'd be grateful if you could share measured AC1.4 for these entries.
Answers are plain numbers, in µM.

Go through the list and state AC1.4 for each entry.
1. COC(=O)CN(C)S(=O)(=O)c1cccc(C(=O)N2CCC[C@@H]2C(=O)NCc2ccc(C(F)(F)F)cc2)c1
2. N#CC1CN(S(=O)(=O)N2CCC[C@H](C(=O)N3CCC[C@@H]3C(=O)NCc3cc(Cl)ccc3F)C2)C1
3. CS(=O)(=O)c1ccnc(C(=O)N2CCC[C@@H]2C(=O)N[C@@H](c2cc(F)c(Cl)cc2F)C2CC2)c1

1: 1.0139; 2: 2.8405; 3: 0.4825

* * *

Test system: Bovine cardiac myofibrils
procedureSummary: In vitro model of dose-dependent myofibril ATPase modulation (AC1.4, pyruvate kinase/lactate dehydrogenase-coupled ATPase assay at pCa25)
Format: biochemical
assayContext: concentration at which ATPase activity was 1.4-fold higher than the bottom of the dose curve, mean of a minimum of two independent tests
Description: In vitro Model of Dose-Dependent Myofibril ATPase Modulation: Dose responses were measured using a calcium-buffered, pyruvate kinase and lactate dehydrogenase-coupled ATPase assay containing the following reagents (concentrations expressed are final assay concentrations): Potassium PIPES (12 mM), MgCl2 (2 mM), ATP (1 mM), DTT (1 mM), BSA (0.1 mg/mi), NADH (0.5 mM), PEP (1.5 mM), pyruvate kinase (4 U/ml), lactate dehydrogenase (8 U/ml), and antifoam (90 ppm). […]
I'd be grateful if you could share measured log10 AC1.4 for these entries.
Use the decimal logarithm of AC1.4 (µM).

Look over these answered cases.
Please report log10 AC1.4 for the following compound: COc1ccc(S(C)(=O)=O)cc1C(=O)N1[C@@H](C(=O)N[C@@H](c2ccc(C(F)(F)F)cc2F)C2CC2)C[C@H]2C[C@H]21 [Example 612]
0.55

Please report log10 AC1.4 for the following compound: Cc1cccc(CNC(=O)[C@H]2CCCN2C(=O)[C@H]2CCCN(S(=O)(=O)N3CC(C#N)C3)C2)c1 [Example 643]
0.63

Please report log10 AC1.4 for the following compound: CS(=O)(=O)c1cncc(C(=O)N2CCC[C@@H]2C(=O)NC(c2ccc(C(F)(F)F)cc2F)C2CC2)c1 (some centres unmarked) [Example 809]
0.69

Please report log10 AC1.4 for the following compound: N#CC1CN(S(=O)(=O)c2cccc(C(=O)N3CCC[C@@H]3C(=O)NCc3ccc(C(F)(F)F)nc3)c2)C1 [Example 131]
-0.67

Please report log10 AC1.4 for the following compound: CCCS(=O)(=O)c1cccc(C(=O)N2CCCC[C@@H]2C(=O)N[C@@H](c2ccc(C(F)(F)F)cc2F)C2CC2)c1 [Example 89]
-0.87

Please report log10 AC1.4 for the following compound: Cc1ccc(S(C)(=O)=O)cc1C(=O)N1CCC[C@@H]1C(=O)N[C@@H](c1ccc(C(F)(F)F)cc1F)C1CC1 [Example 666]
0.67

Go through the list and state log10 AC1.4 for each entry.
1. N#CC1CN(S(=O)(=O)N2CCC[C@H](C(=O)N3CCC[C@@H]3C(=O)N[C@@H](c3cc(F)c(Cl)cc3F)C3CNC3)C2)C1 (single isomer, unassigned) [Example 558]
2. CS(=O)(=O)c1cccc(C(=O)N2[C@@H](C(=O)N[C@@H](c3cc(F)c(C(F)F)cc3F)C3CC3)C[C@H]3C[C@H]32)c1 [Example 197]
3. N#CC1CN(S(=O)(=O)N2CCC[C@H](C(=O)N3CCC[C@@H]3C(=O)NC3CC(CO)c4ccccc43)C2)C1 (some centres unmarked) [Example 276]
4. COc1ccc(CNC(=O)[C@H]2CCCN2C(=O)[C@H]2CCCN(S(=O)(=O)N3CC(C#N)C3)C2)c(F)c1 [Example 557]
5. N#CC1CN(S(=O)(=O)c2cccc(C(=O)N3CCC[C@@H]3C(=O)N[C@@H](c3ccc(C(F)(F)F)cc3)C3CC3)c2)C1 [Example 30]

[0.47, -0.40, -0.15, 0.47, -1.50]
